Measured values drawn from PubChem BioAssay (NCI) for this set.

System: NCI-H23 lung
TEST_NAME: NCI tumour cell line growth inhibition, 48 h
Reported TGI values are given for each entry in this list.

| MOLECULE | TGI |
| --- | --- |
| Cc1n[nH]c(=O)n1N1C(=O)CCCC1=O | > 100 µM |
| O=C(O)c1cc2c(ncc3c(=O)n(-c4ccccc4)[nH]c32)s1 | > 100 µM |
| NC(N)=NCCCC(NC(=O)c1cccc2c(=O)c3ccccc3[nH]c12)C(=O)O (configuration not stated) | > 100 µM |
| c1cnn2ncc(-c3ccnc(NCCCN4CCOCC4)n3)c2c1 | > 25 µM |
| CC/C=C\C/C=C\C/C=C\CCCCCCCC(=O)OCC(O)CO (configuration not stated) | > 100 µM |
| NC(CSC1c2ccccc2-c2ccccc21)C(=O)O (configuration not stated) | > 100 µM |
| CN(C)CCCn1c(=O)c2ccccc2c2ccccc21 | 46 µM |
| C=CCC1(OCc2ccccc2)C(=O)C(=O)OC1C1COC(C)(C)O1 (configuration not stated) | > 100 µM |
| CN1c2ccccc2C(=O)NC12CCN(CCCC(=O)c1ccc(F)cc1)CC2 | > 100 µM |
| O=C(c1ccccc1)c1ccc2nc(-c3c(Cl)c(Cl)c(Cl)c(Cl)c3C(=O)N/N=C/c3ccc(Cl)cc3)[nH]c2c1 | > 100 µM |
| CC1(C)C=Cc2c(cc(O)c3c(=O)c4cc(Cl)ccc4[nH]c23)O1 | 6.54 µM |
| COc1ccc(-c2cc(-c3ccc(C)cc3)nc3nc(=S)[nH]c(N)c23)cc1 | 60.2 µM |

###

Test system: 786-0 renal
TEST_NAME: NCI tumour cell line growth inhibition, 48 h
Each entry below carries its recorded TGI.
ENDPOINT: TGI

| MOLECULE | ENDPOINT | RESULT |
| --- | --- | --- |
| O=[N+]([O-])c1nccn1CCCNc1ccnc2cc(Cl)ccc12 | TGI | > 100 µM |
| NC(N)=NCC[C@H](NC(=O)OCCCCCn1ccc(=O)[nH]c1=O)C(=O)O | TGI | > 100 µM |
| FC(F)(F)c1ccc(-c2cnc(-c3ncon3)nc2NC2CCCCCC2)cc1 | TGI | > 100 µM |
| CCC(C=O)P1(=O)OC(C)(C)CN1C(C)(C)C (configuration not stated) | TGI | > 100 µM |
| COc1cc2c3c(n(C)c(=O)c2cc1OC)-c1cc2c(cc1/C3=C\CCCCN1C(=O)c3ccccc3C1=O)OCO2 | TGI | > 100 µM |
| CCCN(CCS(C)(=O)=O)Cc1ccc(-c2ccc3ncnc(Nc4ccc(OCc5cccc(F)c5)c(Cl)c4)c3c2)o1 | TGI | > 25 µM |
| O=c1nc(NC2CCCCO2)ccn1CCO (configuration not stated) | TGI | > 100 µM |

###

Each entry below carries its reported TGI.
Test system: UACC-257 melanoma
TEST_NAME: NCI tumour cell line growth inhibition, 48 h

| MOLECULE | TGI |
| --- | --- |
| O=C(O)c1ccc(C2COc3ccc(Cl)cc3C2)cc1 (centres undefined) | > 100 µM |
| COc1cccc(NC(=O)CSc2nnc(-c3ccc(NC(C)=O)cc3)o2)c1 | > 100 µM |
| CCCc1c(-c2ccccc2)[nH]c2ccccc2c1=O | > 100 µM |
| NC(=O)c1csc(C2OC(CO)C(O)C2O)n1 (centres undefined) | > 10000 µM |
